Method notes: chemical genetic growth profiling, strain panel (AID 1159580);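 further: tested at 20 µM; growth read once vehicle control cultures reached saturation at 30 °C; 1 = growth at the plate median or of vehicle wells; lower values mean less growth of the strain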
Setup conditions: S. cerevisiae deletion strains, growth OD, locus YNL322C, strain KRE1 (second series), hits give low values
The campaign covered roughly 5,500 compounds. About 2,000 (36%) were called active. Not shown: some 18% with an inconclusive outcome. The list shows a part of the results.
Reported normalized growth is given for each of the following compounds.
Parameter: normalized growth

[[record]]
compound = "COc1cc(O)c(C(=O)/C=C/c2ccccc2)c(OC)c1"
value_reported = "0.947 (inactive)"

[[record]]
compound = "CN(C)C(=S)SSC(=S)N(C)C"
value_reported = "0.0642 (active)"

[[record]]
compound = "Cc1cccc(C)c1OCC(C)N (stereo not drawn)"
value_reported = "1 (inactive)"

[[record]]
compound = "CC(=O)[C@H]1CCC2C3CCC4=CC(=O)CC[C@]4(C)C3CC[C@@]21C (stereo partly drawn)"
value_reported = "1 (inactive)"

[[record]]
compound = "COc1cc2c(cc1OC)Cc1cc(OC)c(OC)cc1Cc1cc(OC)c(OC)cc1C2"
value_reported = "1.05 (inactive)"

[[record]]
compound = "CC(=O)OC(C)(C)[C@@H]1Cc2cc3ccc(=O)oc3cc2O1"
value_reported = "0.951 (inactive)"

[[record]]
compound = "CC1CC2C3CCC4=CC(=O)C=C[C@]4(C)[C@@]3(F)[C@@H](O)C[C@]2(C)[C@@]1(O)C(=O)CO (stereo partly drawn)"
value_reported = "0.96 (inactive)"

[[record]]
compound = "CCOC(=O)c1c(C)c(Cl)c(O)c(Cl)c1O"
value_reported = "0.783 (active)"


* * *

We begin with a simple list: items and their reported normalized growth.
Method notes: chemical genetic growth profiling, strain panel (AID 1159580);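 further: tested at 20 µM; growth read once vehicle control cultures reached saturation at 30 °C; 1 = growth at the plate median or of vehicle wells; lower values mean less growth of the strain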
Setup conditions: S. cerevisiae deletion strains, growth OD, locus YLR371W, strain rom2, hits give low values
Among all 5,500 compounds or so, about 2,000 (36%) were called active. Inconclusive results (about 18%) are left out. This is one part of the list.
Parameter: normalized growth

[[record]]
molecule = "COc1ccc2c(c1)O[C@@H]1COc3cc(OC)c(OC)cc3[C@@H]1C2=O"
parameter = "normalized growth"
value_reported = 0.854

[[record]]
molecule = "COC1=C(OC)C(=O)C(C/C=C(\\C)CC/C=C(\\C)CC/C=C(\\C)CC/C=C(/C)CC/C=C(\\C)CC/C=C(\\C)CC/C=C(\\C)CC/C=C(\\C)CC/C=C(\\C)CCC=C(C)C)=C(C)C1=O"
parameter = "normalized growth"
value_reported = 0.99

[[record]]
molecule = "COc1cc2c(cc1OC)[C@@H]1C(=O)c3ccc(OC)c(CC=C(C)C)c3O[C@@H]1CO2"
parameter = "normalized growth"
value_reported = 1.04

[[record]]
molecule = "CC(=O)C1CCC2C3CC(=O)C4=CC(=O)CCC4(C)C3CCC12C (stereo not given)"
parameter = "normalized growth"
value_reported = 0.986

[[record]]
molecule = "COc1cc2c(cc1OC)C1C(=O)c3c(cc4c(c3O)C=CC(C)(C)O4)OC1CO2 (stereo not given)"
parameter = "normalized growth"
value_reported = 1.03

[[record]]
molecule = "C=C1C2CC[C@H]3[C@]4(C)C[C@H](OC5OC(CO)C(OS(=O)(=O)O)C(OS(=O)(=O)O)C5OC(=O)CC(C)C)C[C@@H](C(=O)O)[C@H]4CC[C@]3(C2)[C@H]1O (stereo not given in full)"
parameter = "normalized growth"
value_reported = 0.987

[[record]]
molecule = "O=C1C=CC(=C(c2ccc(O)cc2)c2ccc(O)cc2)C=C1"
parameter = "normalized growth"
value_reported = 0.985

[[record]]
molecule = "COc1cc(O)c(C(=O)/C=C/c2ccccc2)c(OC)c1"
parameter = "normalized growth"
value_reported = 0.8

[[record]]
molecule = "COc1cc2c(cc1OC)C1C(=O)c3ccc4c(c3OC1CO2)CCC(C)(C)O4 (stereo not given)"
parameter = "normalized growth"
value_reported = 1.01

[[record]]
molecule = "C[C@]12CC(=O)C3C(CC[C@@H]4C[C@H](O)CC[C@]34C)C1CC[C@]2(O)C(=O)CO (stereo not given in full)"
parameter = "normalized growth"
value_reported = 0.993

